- MEASURED_TARGET: G-protein coupled receptor 151 (Homo sapiens)
- ASSAY_NOTES: GPR151 activator potency, dose response, cell-based (AID 1508610)
- TEST_SETTINGS: cell-based GPR151 activation reporter
The source made the active and inactive calls. How the calls were made is not given here.
VALUE_KIND: EC50

MOLECULE	MEASURED_TARGET	VALUE_KIND	ASSAY_RESULT
COc1ccc(NS(=O)(=O)c2cccc3c(S(=O)(=O)Nc4ccc(OC)cc4OC)cccc23)c(OC)c1	G-protein coupled receptor 151 (Homo sapiens)	EC50	> 20.8 µM (inactive)
CCCCCCOc1ccc(C(=O)O)cc1OC	G-protein coupled receptor 151 (Homo sapiens)	EC50	> 31.1 µM (inactive)
Cc1ccn(CCC(=O)NCC2Cc3cc(-c4cnccn4)cc(Cl)c3O2)n1 (stereo unspecified)	G-protein coupled receptor 151 (Homo sapiens)	EC50	> 28 µM (inactive)
Clc1ccc(-c2nc(-c3ccccn3)no2)c(Cl)c1	G-protein coupled receptor 151 (Homo sapiens)	EC50	> 29.7 µM (inactive)
COc1cc(Nc2ccnc(Nc3ccc(N4CCOCC4)cc3)n2)cc(OC)c1OC	G-protein coupled receptor 151 (Homo sapiens)	EC50	> 28.2 µM (inactive)

Pending molecule:
stdin: Need EC50, item COc1ccc(-c2nnc(/C=C/c3cccs3)o2)cc1
stdout: > 27.6 µM (inactive)

* * *

Below: a set of entries, each annotated with reported EC50.
- MEASURED_TARGET: G-protein coupled receptor 151 (Homo sapiens) (UniProt Q8TDV0)
- Sequence (Q8TDV0 whole entry, looked up): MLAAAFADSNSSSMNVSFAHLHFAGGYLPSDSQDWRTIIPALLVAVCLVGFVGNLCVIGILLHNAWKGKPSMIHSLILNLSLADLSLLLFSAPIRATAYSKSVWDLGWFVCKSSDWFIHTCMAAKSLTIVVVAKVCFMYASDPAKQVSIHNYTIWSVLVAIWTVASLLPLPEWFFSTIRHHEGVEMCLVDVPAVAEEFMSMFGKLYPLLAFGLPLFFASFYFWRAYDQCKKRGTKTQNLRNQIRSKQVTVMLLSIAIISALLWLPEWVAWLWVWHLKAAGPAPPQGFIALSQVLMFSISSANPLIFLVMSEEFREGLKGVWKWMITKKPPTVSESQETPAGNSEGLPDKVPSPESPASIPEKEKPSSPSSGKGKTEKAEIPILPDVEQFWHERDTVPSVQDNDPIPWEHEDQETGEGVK
- ASSAY_NOTES: GPR151 activator potency, dose response, cell-based (AID 1508610)
- TEST_SETTINGS: cell-based GPR151 activation reporter
Active and inactive are the calls of the source. How the calls were made is not given here.

Some solved entries appear below for comparison.
MOLECULE	EC50
S=c1nc2c(n[nH]1)c1ccccc1n2CCc1ccccc1	> 33 µM (inactive)
COc1ccc(C(=O)Nc2cccc(C(=O)N3CCCC3)c2)cc1	> 28 µM (inactive)
COc1ccc(/C=C/C(=O)Nc2ccccc2F)cc1	> 30.5 µM (inactive)
O=C(Nc1ncc([N+](=O)[O-])s1)c1ccccc1F	> 34 µM (inactive)
COc1ccc(-c2ccc(C(N)=O)s2)cn1	> 28.1 µM (inactive)

stdin: Need EC50, item COc1ccc(-c2ccc(C(=O)Nc3ccccc3)s2)cc1
stdout: > 27.9 µM (inactive)

stdin: Need EC50, item O=C1C2C3C=CC(C3)C2C(=O)N1Nc1c(Cl)cc(Cl)cc1Cl (configuration not stated)
stdout: > 28 µM (inactive)

stdin: Need EC50, item Cc1ccc(-c2nc(-c3ccccn3)no2)cc1Cl
stdout: > 35 µM (inactive)

stdin: Need EC50, item Cc1ccnc(SCc2cc(=O)c(OC(=O)c3cc(Cl)ccc3[N+](=O)[O-])co2)n1
stdout: > 28.4 µM (inactive)

stdin: Need EC50, item O=C(Nc1nc2cc3c(cc2s1)OCO3)C1=COCCO1
stdout: > 27.4 µM (inactive)

stdin: Need EC50, item Cn1c(=O)[nH]c2nnc(-c3ccc(F)cc3)nc2c1=O
stdout: > 28 µM (inactive)

* * *

- MEASURED_TARGET: G-protein coupled receptor 151 (Homo sapiens) (UniProt Q8TDV0)
- ASSAY_NOTES: GPR151 activator potency, dose response, cell-based (AID 1508610)
- TEST_SETTINGS: cell-based GPR151 activation reporter
Activity calls are given as the source filed them. The rule behind the calls is not given here.
VALUE_KIND: EC50

Some solved entries appear below for comparison.
COMPOUND	MEASURED_TARGET	EC50
Cc1ccc2c(c1)CN(CCC(=O)NCCCn1nnc3ccccc31)CC(C)O2 (stereo not drawn)	G-protein coupled receptor 151 (Homo sapiens) (UniProt Q8TDV0)	> 28 µM (inactive)
Fc1ccc(CSc2ncn[nH]2)cc1	G-protein coupled receptor 151 (Homo sapiens) (UniProt Q8TDV0)	> 50.7 µM (inactive)
N#Cc1sc(NC(=O)c2ccc(F)c(F)c2)nc1Cl	G-protein coupled receptor 151 (Homo sapiens) (UniProt Q8TDV0)	> 28 µM (inactive)
O=C(CSc1nc(NC2CCCCC2)c2ccccc2n1)c1ccc(F)cc1	G-protein coupled receptor 151 (Homo sapiens) (UniProt Q8TDV0)	> 28.1 µM (inactive)
O=C(NC1CC1)c1ccc(-c2ccc(N3CCOCC3)nc2)s1	G-protein coupled receptor 151 (Homo sapiens) (UniProt Q8TDV0)	> 27.6 µM (inactive)
O=[N+]([O-])c1ccc(NS(=O)(=O)Cc2ccccc2)c([N+](=O)[O-])c1	G-protein coupled receptor 151 (Homo sapiens) (UniProt Q8TDV0)	> 28 µM (inactive)
CCOC(=O)c1cc(C)n(CCc2ccccc2)c1C	G-protein coupled receptor 151 (Homo sapiens) (UniProt Q8TDV0)	> 39.1 µM (inactive)
Cc1nn(Cc2ccc(F)cc2)c(C)c1N	G-protein coupled receptor 151 (Homo sapiens) (UniProt Q8TDV0)	> 28 µM (inactive)

stdin: Need EC50, item CSc1cccc(CN2CCN(Cc3ccccc3F)C(CCO)C2)c1 (stereo not drawn)
stdout: > 28 µM (inactive)

stdin: Need EC50, item Cc1cccc(C)c1-n1c(=S)sc2c(=O)n(-c3cccc(Cl)c3)c(SCC#N)nc21
stdout: > 21.8 µM (inactive)

stdin: Need EC50, item COc1ccc(-c2nc(-c3ccccn3)no2)cc1
stdout: > 35.9 µM (inactive)

stdin: Need EC50, item Cn1c2c(c(=O)n(C)c1=O)C(c1cccc(F)c1)C1=C(CC(C)(C)CC1=O)N2 (stereo not drawn)
stdout: > 27.8 µM (inactive)

* * *

Below: a set of entries, each annotated with reported EC50.
- MEASURED_TARGET: G-protein coupled receptor 151 (Homo sapiens)
- ASSAY_NOTES: GPR151 activator potency, dose response, cell-based (AID 1508610)
- TEST_SETTINGS: cell-based GPR151 activation reporter
Active and inactive are the calls of the source. The rule behind the calls is not given here.

Some solved entries appear below for comparison.
MOLECULE	VALUE_KIND	ASSAY_RESULT
Cc1ccn2cc(-c3ccc(F)cc3)nc2c1	EC50	> 30.9 µM (inactive)
COc1cccn2c(C(=O)Nc3ccc(Cl)cc3)c(C(F)(F)F)nc12	EC50	> 28 µM (inactive)
N#Cc1ccc(NC(=O)COC(=O)CCC(=O)c2ccc3c(c2)OCCO3)cc1	EC50	> 28.4 µM (inactive)

stdin: Hi! What's the reported EC50 for Cc1n[nH]c(C)c1S(=O)(=O)NCc1ccc(F)cc1 on G-protein coupled receptor 151 (Homo sapiens)?
stdout: > 28 µM (inactive)

stdin: Hi! What's the reported EC50 for CC(C)CC(C(=O)Nc1cccc([N+](=O)[O-])c1)N1C(=O)c2ccccc2C1=O (stereo unspecified) on G-protein coupled receptor 151 (Homo sapiens)?
stdout: > 28 µM (inactive)

stdin: Hi! What's the reported EC50 for COC(=O)c1ccc(Cl)cc1NC(=O)N(C(C)C)C1CCN(C(C)=O)CC1 on G-protein coupled receptor 151 (Homo sapiens)?
stdout: > 28 µM (inactive)

stdin: Hi! What's the reported EC50 for O=C(O)c1ccc(COc2ccc3c(c2)CCC3)o1 on G-protein coupled receptor 151 (Homo sapiens)?
stdout: > 28 µM (inactive)

stdin: Hi! What's the reported EC50 for CSc1nccc(-c2cc(Cl)c3c(c2)CC(CNC(=O)c2ccoc2)O3)n1 (stereo unspecified) on G-protein coupled receptor 151 (Homo sapiens)?
stdout: > 28 µM (inactive)

stdin: Hi! What's the reported EC50 for CCCCCCCCCCCCCCCC(=O)SCCOP(=O)(O)OCC[N+](C)(C)C on G-protein coupled receptor 151 (Homo sapiens)?
stdout: > 11.2 µM (inactive)

stdin: Hi! What's the reported EC50 for COc1ccc(N(CC(=O)Nc2ccccc2-c2ccccc2)S(C)(=O)=O)cc1 on G-protein coupled receptor 151 (Homo sapiens)?
stdout: > 28 µM (inactive)

stdin: Hi! What's the reported EC50 for CC[C@@H](C(=O)[C@@H](C)[C@@H](O)[C@H](C)CCc1ccc(C)c(O)c1C(=O)O)[C@H]1O[C@](CC)([C@H]2CC[C@](O)(CC)[C@H](C)O2)C[C@@H]1C on G-protein coupled receptor 151 (Homo sapiens)?
stdout: > 28 µM (inactive)

* * *

- MEASURED_TARGET: G-protein coupled receptor 151 (Homo sapiens) (UniProt Q8TDV0)
- ASSAY_NOTES: GPR151 activator potency, dose response, cell-based (AID 1508610)
- TEST_SETTINGS: cell-based GPR151 activation reporter
Activity calls are given as the source filed them. No rule for the calls is given here.
VALUE_KIND: EC50

SMILES_STRING	MEASURED_TARGET	VALUE_KIND	ASSAY_RESULT
CCCCCCCCCCCCCC/C(C(=O)O)=C(\C)C(=O)O	G-protein coupled receptor 151 (Homo sapiens) (UniProt Q8TDV0)	EC50	> 28 µM (inactive)
COc1ccc(-c2ccc(C(=O)NCCO)s2)cc1	G-protein coupled receptor 151 (Homo sapiens) (UniProt Q8TDV0)	EC50	> 27.9 µM (inactive)
Cn1c(COc2ccc(Cl)cc2)nnc1SCC(=O)NCC(F)(F)F	G-protein coupled receptor 151 (Homo sapiens) (UniProt Q8TDV0)	EC50	> 28.4 µM (inactive)
COc1cccc(-c2nc(-c3ccccn3)no2)c1	G-protein coupled receptor 151 (Homo sapiens) (UniProt Q8TDV0)	EC50	> 37.5 µM (inactive)
Cc1c(C(=O)NCc2ccco2)oc2ccc(S(=O)(=O)N(C)C3CCCCC3)cc12	G-protein coupled receptor 151 (Homo sapiens) (UniProt Q8TDV0)	EC50	> 28 µM (inactive)

Pending compound:
stdin: Need EC50, item CCCNC(=O)c1ccc2nc(-c3csc4ccccc34)sc2c1
stdout: > 25.7 µM (inactive)
